Molecular target: Human recombinant PTP1B (Homo sapiens, UniProt P18031)
Construct: made in house
Sequence (P18031 whole entry): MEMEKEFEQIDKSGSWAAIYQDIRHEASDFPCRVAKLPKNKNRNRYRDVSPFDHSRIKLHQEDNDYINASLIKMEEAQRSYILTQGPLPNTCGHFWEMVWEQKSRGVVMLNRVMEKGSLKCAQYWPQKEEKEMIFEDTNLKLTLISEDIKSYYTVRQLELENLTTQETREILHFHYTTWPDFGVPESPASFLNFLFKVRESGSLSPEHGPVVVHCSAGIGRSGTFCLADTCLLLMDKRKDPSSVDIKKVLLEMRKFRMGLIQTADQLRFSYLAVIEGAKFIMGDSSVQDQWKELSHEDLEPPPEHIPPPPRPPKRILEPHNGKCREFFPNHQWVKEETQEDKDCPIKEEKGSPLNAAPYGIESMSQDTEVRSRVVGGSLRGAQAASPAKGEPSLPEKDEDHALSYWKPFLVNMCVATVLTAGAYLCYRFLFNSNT
Test: Inhibition of tri-phosphorylated insulin receptor dodecaphosphopeptide dephosphorylation by hPTP1B (malachite green)
Format: biochemical
Conditions: compound at 2.5 uM; read-out: change of PTP1B activity (percent of phosphatase control)
Where a name gives a salt, the structure may show the parent alone.
Measured Property: inhibition at 2.5 µM (%)

Use the examples below as a reference point.
>>> df
                                   molecule                        measurement_target     measured_property  recorded_number
0  O=C(O)C(Cc1ccccc1)Oc1ccc(-c2ccc(-c3c(Br)oc4ccccc34)cc2)cc1 (centres unmarked)  Human recombinant PTP1B (Homo sapiens, UniProt P18031)  inhibition at 2.5 µM               58
1  CC(=O)c1ccc(-c2ccc(-c3ccc(O[C@@H](Cc4ccccc4)C(=O)O)cc3)cc2)s1 [Example 71, sodium salt]  Human recombinant PTP1B (Homo sapiens, UniProt P18031)  inhibition at 2.5 µM               43
2  COC(=O)[C@H](Cc1ccccc1)Oc1ccc(-c2ccc(-c3c(Cc4ccccc4)oc4ccccc34)cc2)cc1  Human recombinant PTP1B (Homo sapiens, UniProt P18031)  inhibition at 2.5 µM               36

a: O=C(O)[C@H](Cc1ccccc1)Oc1ccc(-c2ccc(-c3nc4ccccc4n3Cc3ccccc3)cc2)cc1
b: O=C(O)COc1ccc(-c2ccc(-c3c(Br)oc4ccccc34)cc2)cc1
Challenge: Look at a and b . Which one has the lower recorded inhibition at 2.5 µM number? Return value: the label identifying the chosen record.
Response given: b

All figures here come from patent EP1077967B1.
